# Tested on: adjuvant-associated biological themes in LV, SP, LN
# Recorded Conditions: LV, ID
Metric Name: GO annotation: regulation of apoptotic process (Term: apoptosis)
Enter a number only.

Examples with their reported GO annotation: regulation of apoptotic process (Term: apoptosis) follow.
Cc1ccc2c(=O)c3cccc(CC(=O)O)c3oc2c1C = 0
CC(O)COC[C@H]1O[C@@H]2O[C@H]3[C@H](O)[C@@H](O)[C@@H](O[C@H]4[C@H](O)[C@@H](O)[C@@H](O[C@H]5[C@H](O)[C@@H](O)[C@@H](O[C@H]6[C@H](O)[C@@H](O)[C@@H](O[C@H]7[C@H](O)[C@@H](O)[C@@H](O[C@H]8[C@H](O)[C@@H](O)[C@@H](O[C@H]1[C@H](O)[C@H]2O)O[C@@H]8COCC(C)O)O[C@@H]7COCC(C)O)O[C@@H]6COCC(C)O)O[C@@H]5COCC(C)O)O[C@@H]4COCC(C)O)O[C@@H]3COCC(C)O (stereo partly drawn) [bCD, Hydroxypropyl-beta-cyclodextrin] = 0
Nc1nc2c(ncn2[C@@H]2O[C@@H]3COP(=O)(O)O[C@H]4[C@@H](O)[C@H](n5cnc6c(=O)[nH]c(N)nc65)O[C@@H]4COP(=O)(O)O[C@H]3[C@H]2O)c(=O)[nH]1 [cdiGMP, Cyclic diguanylate monophosphate] = 4.93

Reported GO annotation: regulation of apoptotic process (Term: apoptosis) ( Nc1nc2c(ncn2[C@@H]2O[C@@H]3COP(=O)(O)O[C@H]4[C@@H](O)[C@H](n5cnc6c(N)ncnc65)O[C@@H]4COP(=O)(O)O[C@@H]2[C@@H]3O)c(=O)[nH]1 [cGAMP, Cyclic [G(2′,5′)pA(3′,5′)p]] ) = 4.63

* * *

Recorded GO annotation: regulation of chemokine production (Term: chemokine) for the following compounds
# Tested on: adjuvant-associated biological themes in LV, SP, LN
# Recorded Conditions: LV, ID
Enter a number only.

Examples with their reported GO annotation: regulation of chemokine production (Term: chemokine) follow.
Nc1nc2c(ncn2[C@@H]2O[C@@H]3COP(=O)(O)O[C@H]4[C@@H](O)[C@H](n5cnc6c(=O)[nH]c(N)nc65)O[C@@H]4COP(=O)(O)O[C@H]3[C@H]2O)c(=O)[nH]1 [cdiGMP, Cyclic diguanylate monophosphate] = 9.64
CC(O)COC[C@H]1O[C@@H]2O[C@H]3[C@H](O)[C@@H](O)[C@@H](O[C@H]4[C@H](O)[C@@H](O)[C@@H](O[C@H]5[C@H](O)[C@@H](O)[C@@H](O[C@H]6[C@H](O)[C@@H](O)[C@@H](O[C@H]7[C@H](O)[C@@H](O)[C@@H](O[C@H]8[C@H](O)[C@@H](O)[C@@H](O[C@H]1[C@H](O)[C@H]2O)O[C@@H]8COCC(C)O)O[C@@H]7COCC(C)O)O[C@@H]6COCC(C)O)O[C@@H]5COCC(C)O)O[C@@H]4COCC(C)O)O[C@@H]3COCC(C)O (stereo partly drawn) [bCD, Hydroxypropyl-beta-cyclodextrin] = 0
Nc1nc2c(ncn2[C@@H]2O[C@@H]3COP(=O)(O)O[C@H]4[C@@H](O)[C@H](n5cnc6c(N)ncnc65)O[C@@H]4COP(=O)(O)O[C@@H]2[C@@H]3O)c(=O)[nH]1 [cGAMP, Cyclic [G(2′,5′)pA(3′,5′)p]] = 0

Now take the following compound into account.
Reported GO annotation: regulation of chemokine production (Term: chemokine) ( "Cc1ccc2c(=O)c3cccc(CC(=O)O)c3oc2c1C" ) = 0
